The origin of these recorded values is patent US20230118307A1.

systemTested: human GLP-1 receptor (human, UniProt P43220 24-463)
method: cell-based or functional assay
Positions of bridges follow the written chain, without caps; N, C: chain ends. Non-standard residues stand in square brackets, D forms with d. No end group written: not given here. *: point of attachment. Acetyl(2-(4-imidazolyl)) = O=C(Cc1c[nH]cn1)*; Aib = CC(C)(N)C(=O)O
// In vitro Activity Compared to Native Peptide (%) vs. GLP-1 lookup, one value per entry
Number in %, nothing else.

Example results:
In: Recall and state the measured In vitro Activity Compared to Native Peptide (%) vs. GLP-1 for Y[Aib]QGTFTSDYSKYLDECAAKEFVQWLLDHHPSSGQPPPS (bridge 16-20) [triple agonist of SEQ ID NO: 64] .
Out: 64.6

In: Recall and state the measured In vitro Activity Compared to Native Peptide (%) vs. GLP-1 for [Acetyl(2-(4-imidazolyl))][Aib]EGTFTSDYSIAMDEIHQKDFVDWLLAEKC (bridge 16-20) [triple agonist of SEQ ID NO: 91] .
Out: 31.9

In: Recall and state the measured In vitro Activity Compared to Native Peptide (%) vs. GLP-1 for {Acetyl(2-(4-imidazolyl))}-[Aib]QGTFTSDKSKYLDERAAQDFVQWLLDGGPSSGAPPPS (ends and bridges not checked) [triple agonist of SEQ ID NO: 62] .
Out: 5.2

In: Recall and state the measured In vitro Activity Compared to Native Peptide (%) vs. GLP-1 for H[Aib]QGTFTSDVSKYLDGQAAQEFVAWLLAGGGPSSGAPPPSC [triple agonist of SEQ ID NO: 10] .
Out: 46

More entries:
In: Recall and state the measured In vitro Activity Compared to Native Peptide (%) vs. GLP-1 for H[Aib]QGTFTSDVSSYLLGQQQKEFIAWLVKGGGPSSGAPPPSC (ends and bridges not checked) [triple agonist of SEQ ID NO: 5] .
Out: 42.1

In: Recall and state the measured In vitro Activity Compared to Native Peptide (%) vs. GLP-1 for H[Aib]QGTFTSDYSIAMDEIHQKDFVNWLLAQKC (bridge 16-20; also: ring type not given here) [triple agonist of SEQ ID NO: 33] .
Out: 24.5

In: Recall and state the measured In vitro Activity Compared to Native Peptide (%) vs. GLP-1 for [Acetyl(2-(4-imidazolyl))][Aib]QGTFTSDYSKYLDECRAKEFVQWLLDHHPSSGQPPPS (bridge 16-20) [triple agonist of SEQ ID NO: 73] .
Out: 22.6

In: Recall and state the measured In vitro Activity Compared to Native Peptide (%) vs. GLP-1 for Y[Aib]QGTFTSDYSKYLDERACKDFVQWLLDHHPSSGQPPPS (bridge 16-20) [triple agonist of SEQ ID NO: 71] .
Out: 90.1

In: Recall and state the measured In vitro Activity Compared to Native Peptide (%) vs. GLP-1 for Y[Aib]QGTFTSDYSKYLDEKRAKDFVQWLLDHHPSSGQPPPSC (bridge 16-20) [triple agonist of SEQ ID NO: 76] .
Out: 10.3

In: Recall and state the measured In vitro Activity Compared to Native Peptide (%) vs. GLP-1 for {Acetyl(2-(4-imidazolyl))}-[Aib]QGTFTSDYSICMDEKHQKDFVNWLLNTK (bridge 15-19) [triple agonist of SEQ ID NO: 59] .
Out: 40.3

In: Recall and state the measured In vitro Activity Compared to Native Peptide (%) vs. GLP-1 for Y[Aib]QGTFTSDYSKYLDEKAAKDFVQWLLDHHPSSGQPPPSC (bridge 16-20) [triple agonist of SEQ ID NO: 77] .
Out: 38.7

In: Recall and state the measured In vitro Activity Compared to Native Peptide (%) vs. GLP-1 for Y[Aib]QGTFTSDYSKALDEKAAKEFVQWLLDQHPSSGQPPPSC (bridge 16-20) [triple agonist of SEQ ID NO: 100] .
Out: 42.2

In: Recall and state the measured In vitro Activity Compared to Native Peptide (%) vs. GLP-1 for Y[Aib]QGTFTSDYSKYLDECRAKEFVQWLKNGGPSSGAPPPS (bridge 16-20) [triple agonist of SEQ ID NO: 24] .
Out: 41.2

In: Recall and state the measured In vitro Activity Compared to Native Peptide (%) vs. GLP-1 for H[Aib]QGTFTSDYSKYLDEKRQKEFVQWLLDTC (bridge 16-20) [triple agonist of SEQ ID NO: 52] .
Out: 44.1

In: Recall and state the measured In vitro Activity Compared to Native Peptide (%) vs. GLP-1 for H[Aib]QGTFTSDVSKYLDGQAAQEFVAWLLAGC [triple agonist of SEQ ID NO: 9] .
Out: 32.1

In: Recall and state the measured In vitro Activity Compared to Native Peptide (%) vs. GLP-1 for H[Aib]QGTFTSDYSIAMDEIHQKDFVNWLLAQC (bridge 16-20) [triple agonist of SEQ ID NO: 55] .
Out: 27.1

In: Recall and state the measured In vitro Activity Compared to Native Peptide (%) vs. GLP-1 for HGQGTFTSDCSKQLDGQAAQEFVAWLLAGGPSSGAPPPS [triple agonist of SEQ ID NO: 44] .
Out: 1.3

In: Recall and state the measured In vitro Activity Compared to Native Peptide (%) vs. GLP-1 for [Acetyl(2-(4-imidazolyl))]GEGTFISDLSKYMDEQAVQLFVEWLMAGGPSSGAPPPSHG [triple agonist of SEQ ID NO: 12] .
Out: 0.4

In: Recall and state the measured In vitro Activity Compared to Native Peptide (%) vs. GLP-1 for H[Aib]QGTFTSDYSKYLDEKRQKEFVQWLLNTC (bridge 16-20) [triple agonist of SEQ ID NO: 51] .
Out: 14.4

In: Recall and state the measured In vitro Activity Compared to Native Peptide (%) vs. GLP-1 for H[Aib]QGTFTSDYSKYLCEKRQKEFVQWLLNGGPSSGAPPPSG (bridge 16-20) [triple agonist of SEQ ID NO: 36] .
Out: 37.4
